Items are presented alongside their recorded log10 Kd.
Target: T1, recombinant extracellular domain protein of cynomolgus monkey DLL3 (cyno.DLL3-ECD-His) (cynomolgus monkey, UniProt A0A2K5WSR1 27-490)
T1 construct: extracellular domain; Commercial protein; not shown: His tag
T1 sequence: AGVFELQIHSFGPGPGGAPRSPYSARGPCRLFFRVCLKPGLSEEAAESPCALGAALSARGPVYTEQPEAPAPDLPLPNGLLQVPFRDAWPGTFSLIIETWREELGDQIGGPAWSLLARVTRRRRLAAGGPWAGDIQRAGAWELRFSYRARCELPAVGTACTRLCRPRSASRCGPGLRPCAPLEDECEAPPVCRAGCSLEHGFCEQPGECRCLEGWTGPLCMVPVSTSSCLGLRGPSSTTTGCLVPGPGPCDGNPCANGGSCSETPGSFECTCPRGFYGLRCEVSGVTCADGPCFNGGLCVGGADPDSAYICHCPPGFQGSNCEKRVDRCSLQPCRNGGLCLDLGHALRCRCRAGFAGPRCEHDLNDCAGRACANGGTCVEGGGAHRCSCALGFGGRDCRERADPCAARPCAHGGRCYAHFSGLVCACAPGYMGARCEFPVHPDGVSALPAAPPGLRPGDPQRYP
Assay: BLI (ForteBio), antibody on ProA sensor, cynoDLL3-ECD-His in solution
Scale type: logarithmic (base 10). Underlying Kd unit: nM.

# count of solved cases: 4
Binder	log10 Kd
55C11E4-Hz1 (antibody, human IgG1, kappa, V domains shown, Humanized IgG1/kappa) VH: EVQLVQSGAEVKKPGASVKVSCKASGYTFTDYYMNWVRQAPGQRLEWMGVINPYNGGTNYSQKFQGRVTLTVDKSASTAYMELSSLRSEDTAVYYCARDSNYVGLLDYWGQGTLVTVSS VL: DIVLTQSPATLSLSPGERATLSCRASQSISNNLHWYQQKPGQAPRLLIKYASQSISGIPARFSGSGSGPDFTLTISSLEPEDFAVYFCQQSNSWPYTFGQGTKVEIKR	0.37
87F7F10-Hz (antibody, human IgG1, kappa, V domains shown, Humanized; also called 87F7F10-hz1) VH: QVQLQESGPGLVKPSETLSLTCTVSGYSITSDFYWNWIRQPPGKGLEWIGYITYDGSTNYNPSLKSRVTISRDTSKNQFSLKLSSVTAADTAVYYCVYGDFNRHAMDYWGQGTLVTVSS VL: DIVMTQSPDSLAVSLGERATINCRSSQSLFNSRTRKNYLAWYQQKPGQPPKVLIYWASTRESGVPDRFSGSGSGTDFTLTISSLQAEDVAVYYCEQSFYLFTFGQGTKVEIKR	0.38
59B10D3-Hz antibody (antibody, human IgG1, kappa, V domains shown, Humanized; also called 59B10D3-hz1) VH: EVQLVESGGGLVQPGGSLRLSCAASGFTFSDAWMDWVRQAPGKGLEWVAEIRNKANNHATYYVDSVKGRFTISRDDAKNSVYLQMNSLRAEDTAVYYCTRNNYGSTWTYYAMDYWGQGTLVTVSS VL: DIQMTQSPSSLSASVGDRVTITCRASQDISNYLNWYQQKPGKAVKLLIYYTSRLHSGVPSRFSGSGSGTDYTLTISSLQPEDFATYYCQQGYTLPLTFGQGTKVEIKR	0.96
6F11C10-Hz1 antibody (antibody, human IgG1, kappa, V domains shown, Humanized IgG1/kappa) VH: EVQLVQSGAEVKKPGASVKVSCKASGFTFTDYYMHWVRQAPGQSLEWMGLVYPYNGDISYAQKFQGRVTLTVDTSISTAYMELSRLRSDDTAVYYCARQGNYVNNAIDYWGQGTLVTVSS VL: DIQMTQSPSSLSASVGDRVTITCKASQNVGNIIAWYQQKPGKSPKALIYLASYRYSGVPSRFSGSGSGTDFTLTISSLQPEDVATYFCQQYSDSPYTFGQGTKVEIKR	-0.06

Now look at this entry.
input: Read off the recorded log10 Kd for 10F2F3-Hz antibody (antibody, human IgG1, kappa, V domains shown, Humanized) VH: QVQLVESGAEVKKPGSSVKVSCKASGYAFSSHWVNWVRQAPGQGLEWMGQIYPGNGDTNYAQKFQGRVTLTADKSTSTAYMELSSLTSEDTAVYFCARWFAYWGQGTLVTVSS VL: DIQMTQSPSSLSASVGDRVTITCKSSQSLLDGGNQKNYLAWYQQKPGKPPKLLVYFASIRESGVPSRFSGSGSGTDFTLTISSLQPEDFATYYCQQHYNTPWTFGQGTKVEIKR
output: 0.11
